Sourced from patent US10844077B2

target: IRAK1 (Homo sapiens (Human)); test: KINATIV assay; type: cell-based; conditions: 1 μM, 90 minutes, BCWM.1 cells
Sequence (P51617 whole entry): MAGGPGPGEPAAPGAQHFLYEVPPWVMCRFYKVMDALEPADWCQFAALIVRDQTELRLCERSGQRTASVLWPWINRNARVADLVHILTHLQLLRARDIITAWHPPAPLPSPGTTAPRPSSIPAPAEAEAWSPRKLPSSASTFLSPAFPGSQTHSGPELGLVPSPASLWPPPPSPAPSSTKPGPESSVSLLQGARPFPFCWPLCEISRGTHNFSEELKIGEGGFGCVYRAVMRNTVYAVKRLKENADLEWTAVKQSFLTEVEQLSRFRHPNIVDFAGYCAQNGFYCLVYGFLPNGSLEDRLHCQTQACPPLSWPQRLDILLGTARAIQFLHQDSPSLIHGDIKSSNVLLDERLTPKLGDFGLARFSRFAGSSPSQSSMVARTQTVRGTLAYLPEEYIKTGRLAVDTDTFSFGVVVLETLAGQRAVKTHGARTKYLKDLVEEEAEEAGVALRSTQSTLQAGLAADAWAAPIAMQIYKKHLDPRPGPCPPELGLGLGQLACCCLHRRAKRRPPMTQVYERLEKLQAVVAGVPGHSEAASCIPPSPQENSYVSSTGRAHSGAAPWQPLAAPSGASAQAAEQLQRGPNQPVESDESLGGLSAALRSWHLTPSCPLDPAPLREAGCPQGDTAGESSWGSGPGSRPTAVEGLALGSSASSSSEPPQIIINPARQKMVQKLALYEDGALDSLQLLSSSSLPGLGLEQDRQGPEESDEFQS
measured.quantity: % change of MS signal compared to control sample (%)
Give bare numbers, in %.

Illustrative cases are given below, each with its answer.
>>> test_result("C=CC(=O)N1CC[C@@H](Nc2nccc(Nc3ncc(C(=O)Nc4c(C)cccc4C)s3)n2)C1")
20.3
>>> test_result("C=CC(=O)N1CCC(CNc2nccc(Nc3ncc(C(=O)Nc4c(C)cccc4C)s3)n2)C1 (racemic)")
13.6

Quick request: % change of MS signal compared to control sample for each listed item, please.
1. C=CC(=O)N1CCC(Cn2ccc(Nc3ncc(C(=O)Nc4c(C)cccc4Cl)s3)n2)C1 (stereo not shown)
2. C=CC(=O)N1CCCCC(Nc2nccc(Nc3ncc(C(=O)Nc4c(C)cccc4C)s3)n2)C1 (stereo not shown)

output:
1: 26.3; 2: 19.0
